# ASSAY METHOD TEXT: Solubility Test (water-solubility)
# CONDITION: water, pH 4, water
TEST READOUT: solubility

Sample answers from the record:
{"SMILES STRUCTURE": "O=C1CN2Cc3c(ccc(Cl)c3Cl)N=C2N1", "solubility": "< 10 µg/mL"}
{"SMILES STRUCTURE": "CN(C)c1ccc2c(c1)CN1CC(=O)NC1=N2", "solubility": "180 µg/mL"}

Any idea what solubility was measured for Cc1cccc2c1CN1CC(=O)NC1=N2.Cl ?
< 10 µg/mL

----------
Parameter: IC50. Scope: all listed entries.
# SYSTEM: human heart PDE III
# ASSAY METHOD TEXT: Inhibitory activity on phosphodiesterase, heart PDE III (cAMP)
# CONDITION: cAMP substrate
Numeric only. Scale: nM

# annotated cases, reported IC50 shown
{"MOLECULE": "Nc1cc(-c2ccncc2)c[nH]c1=O [Amrinone, 5Amino-(3,4bipyridin)-6(1H)--one, reference compound]", "UNITS LABEL": "nM", "VALUE OBSERVED": 34000}
{"MOLECULE": "CN(C)c1ccc2c(c1Cl)CN1CC(=O)NC1=N2", "UNITS LABEL": "nM", "VALUE OBSERVED": 180}
{"MOLECULE": "CN(C)c1cc2c(cc1Cl)NC1=NC(=O)CN1C2", "UNITS LABEL": "nM", "VALUE OBSERVED": 110}
{"MOLECULE": "CC1CCCCN1c1ccc2c(c1)CN1CC(=O)NC1=N2 (centres unmarked)", "UNITS LABEL": "nM", "VALUE OBSERVED": 800}

Now consider a different molecule.
# IC50 lookup, item O=C1CN2Cc3c(ccc(Cl)c3Cl)N=C2N1
96

----------
# System: platelet aggregation
# ASSAY METHOD TEXT: Test of Platelet Aggregation Inhibition (ex vivo, p.o.)
# Format: in vivo, Wistar Imamichi rat
# CONDITION: Platelet, po; ex vivo; rat; 10 mg/Kg p.o.; 1 hour; ADP; *P<0.05, **P<0.01, ***P<0.001; read-out: ex vivo % inhibition of platelet aggregation, ADP
# Method: One hour later, citrated blood was taken from the heart, and platelet aggregation was determined in the same manner as described in the in vitro test. The inhibitory activity was compared with that of control and expressed in terms of percent inhibition.
Recorded inhibition at 10 mg/kg values for a group of compounds are listed next.
Field format: number, assumed %, no unit text.

Worked examples follow.
{"COMPOUND": "CN(C)c1ccc2c(c1Cl)CN1CC(=O)NC1=N2 [Example 22]", "UNITS LABEL": "%", "inhibition at 10 mg/kg": 64}
{"COMPOUND": "O=C1CN2Cc3c(ccc(Cl)c3Cl)N=C2N1 [BL-4162]", "UNITS LABEL": "%", "inhibition at 10 mg/kg": 8}
{"COMPOUND": "CN(C)c1cc2c(cc1Cl)NC1=NC(=O)CN1C2 [Example 15]", "UNITS LABEL": "%", "inhibition at 10 mg/kg": 28}
{"COMPOUND": "Cl.Cl.O.O=C1CN2Cc3cc(N4CCCCC4)c(Cl)cc3N=C2N1 [Example 16, dihydrochloride monohydrate]", "UNITS LABEL": "%", "inhibition at 10 mg/kg": 34}
{"COMPOUND": "CN(C)c1ccc2c(c1)CN1CC(=O)NC1=N2 [Example 21]", "UNITS LABEL": "%", "inhibition at 10 mg/kg": 29}
{"COMPOUND": "Cc1cccc2c1CN1CC(=O)NC1=N2.Cl [BL-3459, hydrochloride]", "UNITS LABEL": "%", "inhibition at 10 mg/kg": 31}

Need inhibition at 10 mg/kg of O=C1CN2Cc3c(ccc(N4CCCCC4)c3Cl)N=C2N1 [Example 9] , thanks.
25

Recorded inhibition at 10 mg/kg for CCN(CC)c1ccc2c(c1Cl)CN1CC(=O)NC1=N2 [Example 23] , please?
25

Look up inhibition at 10 mg/kg: O=C1CN2Cc3cc(N4CCOCC4)c(Cl)cc3N=C2N1 [Example 17]
47

----------
# SYSTEM: human platelet PDE III (Homo sapiens)
# Sequence (Q14432 whole entry): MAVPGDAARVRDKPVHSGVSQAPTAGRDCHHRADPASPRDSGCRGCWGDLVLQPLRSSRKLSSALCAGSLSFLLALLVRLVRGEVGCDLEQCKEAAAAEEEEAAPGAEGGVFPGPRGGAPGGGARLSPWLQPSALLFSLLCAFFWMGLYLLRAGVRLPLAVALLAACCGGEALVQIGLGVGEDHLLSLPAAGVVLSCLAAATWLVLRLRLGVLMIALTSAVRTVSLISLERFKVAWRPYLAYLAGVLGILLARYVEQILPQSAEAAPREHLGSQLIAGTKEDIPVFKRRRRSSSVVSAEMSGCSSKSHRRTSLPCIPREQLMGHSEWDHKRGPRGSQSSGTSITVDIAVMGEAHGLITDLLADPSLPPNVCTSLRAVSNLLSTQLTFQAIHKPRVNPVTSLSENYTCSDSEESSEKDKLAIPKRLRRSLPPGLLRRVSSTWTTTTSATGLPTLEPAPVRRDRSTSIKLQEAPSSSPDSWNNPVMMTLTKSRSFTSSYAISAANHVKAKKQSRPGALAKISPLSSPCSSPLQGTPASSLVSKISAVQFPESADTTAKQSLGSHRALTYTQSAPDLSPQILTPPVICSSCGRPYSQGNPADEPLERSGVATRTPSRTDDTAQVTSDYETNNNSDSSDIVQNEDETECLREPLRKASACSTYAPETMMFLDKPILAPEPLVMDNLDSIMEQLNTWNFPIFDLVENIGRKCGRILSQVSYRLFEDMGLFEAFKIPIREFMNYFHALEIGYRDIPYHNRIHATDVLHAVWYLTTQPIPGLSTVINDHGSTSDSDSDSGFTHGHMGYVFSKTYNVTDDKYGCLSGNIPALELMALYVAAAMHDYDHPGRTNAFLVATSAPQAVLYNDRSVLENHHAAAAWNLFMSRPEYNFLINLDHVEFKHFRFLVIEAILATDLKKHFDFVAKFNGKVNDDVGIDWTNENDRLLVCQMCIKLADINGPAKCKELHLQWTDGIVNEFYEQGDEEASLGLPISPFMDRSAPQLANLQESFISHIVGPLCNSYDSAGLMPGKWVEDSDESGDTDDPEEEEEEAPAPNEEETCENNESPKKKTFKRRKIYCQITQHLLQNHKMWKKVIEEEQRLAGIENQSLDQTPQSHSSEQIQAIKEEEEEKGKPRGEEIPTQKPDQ
TEST READOUT: pIC50
On this scale, pIC50 is minus log10 of a concentration expressed in M (mol/L).

{"COMPOUND": "CN(C)c1ccc2c(c1Cl)CN1CC(=O)NC1=N2 [Example 22]", "TEST READOUT": "pIC50", "VALUE OBSERVED": 6.82}
{"COMPOUND": "CN(C)c1cc2c(cc1Cl)NC1=NC(=O)CN1C2 [Example 15]", "TEST READOUT": "pIC50", "VALUE OBSERVED": 7.20}
{"COMPOUND": "Cl.Cl.O.O=C1CN2Cc3cc(N4CCCCC4)c(Cl)cc3N=C2N1 [Example 16, dihydrochloride monohydrate]", "TEST READOUT": "pIC50", "VALUE OBSERVED": 8.09}
{"COMPOUND": "CN(C)c1ccc2c(c1)CN1CC(=O)NC1=N2 [Example 21]", "TEST READOUT": "pIC50", "VALUE OBSERVED": 5.89}
{"COMPOUND": "Cl.O=C1CN2Cc3c(sc4c3CCCC4)N=C2N1 [DH-6471, reference compound]", "TEST READOUT": "pIC50", "VALUE OBSERVED": 7.19}
{"COMPOUND": "CC1CCCCN1c1ccc2c(c1)CN1CC(=O)NC1=N2 (stereo not shown) [Example 5]", "TEST READOUT": "pIC50", "VALUE OBSERVED": 6.46}

As a next step, examine the compound that follows.
Missing value: pIC50, human platelet PDE III (Homo sapiens), entry O=C1CN2Cc3cc(N4CCCCC4)ccc3N=C2N1 [7-Piperidino Compound, reference compound] . Fill in?
6.82

----------
# Test system: platelet aggregation
# ASSAY METHOD TEXT: Test of Platelet Aggregation Inhibition (ex vivo, p.o.)
# Assay type: in vivo, Wistar Imamichi rat
# CONDITION: Platelet, po; ex vivo; rat; 10 mg/Kg p.o.; 1 hour; collagen; *P<0.05, **P<0.01, ***P<0.001; read-out: ex vivo % inhibition of platelet aggregation, Collagen
Catalogue of inhibition at 10 mg/kg readings, one per entry.
# value in %; strip the unit string

# count of solved cases: 4
{"COMPOUND": "CN(C)c1cc2c(cc1Cl)NC1=NC(=O)CN1C2 [Example 15]", "inhibition at 10 mg/kg, %": 49}
{"COMPOUND": "Cl.Cl.O.O=C1CN2Cc3cc(N4CCCCC4)c(Cl)cc3N=C2N1 [Example 16, dihydrochloride monohydrate]", "inhibition at 10 mg/kg, %": 76}
{"COMPOUND": "O=C1CN2Cc3c(ccc(N4CCCCC4)c3Cl)N=C2N1 [Example 9]", "inhibition at 10 mg/kg, %": 32}
{"COMPOUND": "CN(C)c1ccc2c(c1)CN1CC(=O)NC1=N2 [Example 21]", "inhibition at 10 mg/kg, %": 48}

Returns the measured inhibition at 10 mg/kg for the input compound. Input: O=C1CN2Cc3c(ccc(Cl)c3Cl)N=C2N1 [BL-4162]
53

Which measured inhibition at 10 mg/kg value corresponds to CCN(CC)c1ccc2c(c1Cl)CN1CC(=O)NC1=N2 [Example 23] ?
70

Which inhibition at 10 mg/kg reading was recorded for the compound Cc1cccc2c1CN1CC(=O)NC1=N2.Cl [BL-3459, hydrochloride] ?
54

Which inhibition at 10 mg/kg value belongs to CN(C)c1ccc2c(c1Cl)CN1CC(=O)NC1=N2 [Example 22] ?
86

Value lookup for inhibition at 10 mg/kg; key = O=C1CN2Cc3cc(N4CCOCC4)c(Cl)cc3N=C2N1 [Example 17]
68
